# ASSAY_NOTES: qHTS Assay for Lipid Storage Modulators in Drosophila S3 Cells
# STUDY_CONDITIONS: BODIPY lipid droplet fluorescence, 18-24 h, cells fed with added oleic acid; series mostly up to 46.1 µM
In all, about 320,000 compounds went through this assay and about 2,100 (0.66%) were called active. About 53% were inconclusive and are not listed. The call rests on the fitted dose curve; in most records, active means well fitted inhibition curve with a large enough effect in the signal ratio, with a control signal flat (not every such curve was filed as active); inconclusive means small, poorly fitted or top-dose-only effect, or effect the other way, or a change in a side signal; inactive means flat fitted curve, though single readings scatter; the % refers to the signal ratio. The list comes from a sample in which actives are over-represented; it also holds close analogues and randomly drawn compounds.
Permitted responses: true (active), false (inactive)

| COMPOUND | CLASS_NAME |
| --- | --- |
| CSc1nsc(SCC(=O)Nc2ccc(C(N)=O)cc2)n1 | true |

Which outcome was entered for the compound "CSc1nsc(SCC(=O)Nc2nncs2)n1" in this test?
false

Also need "O=C(c1cccc(C(=O)N2CCN(c3ccccc3)CC2)c1)N1CCN(c2ccccc2)CC1" , thanks.
false

Also need NC(Cc1ccccc1)C(O)(c1ccccc1)c1ccccc1 (stereo not drawn) , thanks.
false

Also need "Cc1c(C(=O)N2CCN(CCc3ccccn3)CC2)oc2ccc(F)cc12" , thanks.
false

Also need "Nc1c(Cl)cc(C2=NCCn3c2c2ccc([N+](=O)[O-])cc2[n+]3[O-])cc1Cl" , thanks.
false

Also need "CCOC(=O)N1CCN(C(=O)C2CCN(S(=O)(=O)N3CCC4(CC3)OCCO4)CC2)CC1" , thanks.
false

Also need "O=[N+]([O-])c1cc(S(=O)(=O)N2CCCCCC2)ccc1F" , thanks.
true

Also need "C=C(C)Cn1c(-c2ccncc2)n[nH]c1=S" , thanks.
false

* * *

# ASSAY_NOTES: qHTS Assay for Lipid Storage Modulators in Drosophila S3 Cells;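 on cell number change: cells counted by Cell Tracker Red CMTPX staining in the red channel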
# STUDY_CONDITIONS: BODIPY lipid droplet fluorescence, 18-24 h, cells fed with added oleic acid; measured here: cell count max response
Screen size: about 320,000 compounds; about 2,100 (0.66%) were called active. Another 53% or so got no clear call; they are omitted. The entries come from a sample that favours actives as a whole.
# reported cell number change; entries follow
Provide only the numeric value, understood in %.

Consider the worked cases shown below.
| MOLECULE | cell number change (%) |
| --- | --- |
| CCOC(=O)[C@H]1[C@H]2COc3cc(OC)ccc3[C@@H]2N2C(=O)c3cc(OC)ccc3NC(=O)[C@@]12C | -12.2 |
| CS(=O)(=O)Nc1ccc(C(=O)NC2CCCC2)cc1 | -0.712 |
| Cc1c(CN2CCCC(C(=O)c3cccc(OC(C)C)c3)C2)c(=O)n(-c2ccccc2)n1C (configuration not stated) | 1.94 |
| Cc1ccc(C(=O)Nc2cccc(C(=O)NC3CCCC3)c2)cc1 | 21.4 |

Given the molecule "CC(=O)Nc1ccc(SCCN2CC[C@@H](C(C)(C)C)CCC2=O)cc1" , what is its reported cell number change?
-1.32

Also need "COc1ccc(-c2csc3ncnc(N4CCN(S(=O)(=O)c5ccccc5C#N)CC4)c23)cc1" , thanks.
-21.2

Also need CCOC(=O)CC1(c2ccccc2)CCOC(C)(C)C1 (configuration not stated) , thanks.
5.31

Also need "CS(=O)(=O)c1ccc(C(=O)NC2CCCCC2)cc1" , thanks.
6.12

Also need "N=c1oc2ccccc2cc1C(=O)Nc1ccccc1" , thanks.
8.78

Also need "N=c1oc2c3c4c(cc2cc1C(=O)Nc1ccccc1)CCCN4CCC3" , thanks.
5.35

Also need "O=C(c1ccc(-c2ccccc2)cc1)N1CCN(Cc2ccccn2)CC1" , thanks.
-0.729
